target: pre-existing anti-scFv903 antibodies in human serum H116 (human); experiment: competition ADA bridging ELISA, 100 mcg/ml competitor
TEST_READOUT: % reduction in OD (%)
Value expressed in %; do not type the unit.

scFv105 (scFv) scFv: DIVMTQSPSSLSASVGDRVTLTCTASQSVSNDVVWYQQRPGKAPKLLIYSAFNRYTGVPSRFSGRGYGTDFTLTISSLQPEDVAVYYCQQDYNSPRTFGQGTKLEVKRGGGGSGGGGSGGGGSSGGGSQVQLVQSGAEVKKPGASVKVSCTASGYTFTHYGMNWVRQAPGKGLEWMGWINTYTGEPTYADKFKDRFTFSLETSASTVYMELTSLTSDDTAVYYCARERGDAMDYWGQGTLVTVSS = -43.4

Query string: Tell me the measured % reduction in OD of scFv 791 (scFv) scFv: MEIVMTQSPSTLSASLGDRVIITCQSSQSVYGNIWMAWYQQKSGKAPKLLIYQASKLASGVPSRFSGSGSGAEFSLTISSLQPDDFATYYCQGNFNTGDRYAFGQGTKLTVLGGGGGSGGGGSGGGGSGGGGSEVQLVESGGGLVQPGGSLRLSCTASGFTISRSYWICWVRQAPGKGLEWVACIYGDNDITPLYANWAKGRFPVSTDTSKNTVYLQMNSLRAEDTAVYYCARLGYADYAYDLWGQGTLVTVSS , please.
Result string: -97.2

Query string: Item scFv 903 (scFv) scFv: EIVMTQSPSTLSASVGDRVIITCQASEIIHSWLAWYQQKPGKAPKLLIYLASTLASGVPSRFSGSGSGAEFTLTISSLQPDDFATYYCQNVYLASTNGANFGQGTKLTVLGGGGGSGGGGSGGGGSGGGGSEVQLVESGGGLVQPGGSLRLSCTASGFSLTDYYYMTWVRQAPGKGLEWVGFIDPDDDPYYATWAKGRFTISRDTSKNTVYLQMNSLRAEDTAVYYCAGGDHNSGWGLDIWGQGTLVTVSS has what recorded % reduction in OD?
Result string: -97.8

Query string: Returns the measured % reduction in OD for the input binder. Input: scFv 961 (scFv) scFv: EIVMTQSPSTLSASVGDRVIITCQASEIIHSWLAWYQQKPGKAPKLLIYLASTLASGVPSRFSGSGSGAEFTLTISSLQPDDFATYYCQNVYLASTNGANFGQGTKLTVLGGGGGSGGGGSGGGGSGGGGSEVQLVESGGGSVQPGGSLRLSCTASGFSLTDYYYMTWVRQAPGKGLEWVGFIDPDDDPYYATWAKGRFTISRDTSKNTVYLQMNSLRAEDTATYYCAGGDHNSGWGLDIWGQGTTVTVSS
Result string: -33.2
